These data points were gathered from ChEMBL document CHEMBL1144991.

# assayedSystem: Corticotropin-releasing factor receptor 1 (Rattus norvegicus)
# Sequence (P35353 whole entry): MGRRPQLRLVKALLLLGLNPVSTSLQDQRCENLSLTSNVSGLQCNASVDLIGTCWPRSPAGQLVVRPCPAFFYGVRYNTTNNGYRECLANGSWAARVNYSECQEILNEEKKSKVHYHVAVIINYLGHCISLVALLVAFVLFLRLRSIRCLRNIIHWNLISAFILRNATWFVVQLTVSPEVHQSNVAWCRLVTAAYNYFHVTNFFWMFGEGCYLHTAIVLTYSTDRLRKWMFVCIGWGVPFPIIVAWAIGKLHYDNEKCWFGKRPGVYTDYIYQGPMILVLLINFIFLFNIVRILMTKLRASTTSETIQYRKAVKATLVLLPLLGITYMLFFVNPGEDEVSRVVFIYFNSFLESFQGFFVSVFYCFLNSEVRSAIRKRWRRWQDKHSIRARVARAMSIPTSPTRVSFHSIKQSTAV
# experiment: Affinity for the Corticotropin releasing factor receptor 1 (CRHR1) was determined in rat brain
# Type: tissue-based
endpoint: Ki (nM)

INSERT INTO assay_data (compoundstring, assayedsystem, endpoint, resultvalue) VALUES
  ('COCCN(CCOC)c1nc(C)nc2c(-c3ccc(Br)cc3Cl)c(C)nn12', 'Corticotropin-releasing factor receptor 1 (Rattus norvegicus)', 'Ki', 1.9);
